- measurement target: human folate-binding protein (FBP) (Homo sapiens, UniProt P15328)
- Construct: membrane associated FBP prepared from cultured KB cells; endogenous in cells
- Sequence (P15328 25-257): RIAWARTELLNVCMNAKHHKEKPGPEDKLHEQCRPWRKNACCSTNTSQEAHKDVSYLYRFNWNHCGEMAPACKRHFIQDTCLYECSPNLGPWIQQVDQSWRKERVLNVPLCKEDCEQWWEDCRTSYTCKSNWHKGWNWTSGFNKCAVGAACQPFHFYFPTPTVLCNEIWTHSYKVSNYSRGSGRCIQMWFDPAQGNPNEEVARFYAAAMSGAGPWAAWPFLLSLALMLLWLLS
- experimental details: FBP competitive binding assay (3H-folic acid, KB cell membranes)
- condition set: 25° C., pH 7.4, 3H-folic acid competition
test readout: Kd (nM)

- compound: "Cc1cc(C(=O)N[C@@H](CCC(=O)O)C(=O)O)sc1CCC1CNc2nc(N)[nH]c(=O)c2C1 (some centres unmarked)"
  endpoint unit: "nM"
  obs value: 28
- compound: "Nc1nc2c(c(=O)[nH]1)CC(CCc1ccc(C(=O)N[C@@H](CCC(=O)O)C(=O)O)cc1)CN2 (some centres unmarked) [DDATHF, 5,10-dideazatetrahydrofolic acid]"
  endpoint unit: "nM"
  obs value: 0.02

The reported numbers originate from patent US5646141A.
